Tested on: E. coli
Assay: Gram negative MIC protocol (OD600, LB, 24 h)
Conditions: Escherichia coli, read-out: MIC E. coli delta-TolC LB Media, E. coli delta-TolC, LB media, OD600
Counter-ions that a name gives are not always drawn.
Here, each record is paired with measured MIC data.

These solved cases illustrate the format of a correct answer.
>>> observed_result("Cc1cccc(CNCCC2=CCCCC2)c1")
"> 150 µM"
>>> observed_result("CC(C)=CCCNCc1ccccc1")
"> 150 µM"
>>> observed_result("CC(CC1CCCCC1)NCc1cccc2ccn(C)c12 (stereo not drawn) [B441, hydrochloride]")
"91 µM"

Data request: What value of MIC has been reported for the following compound? CC(NCCC1=CCCCC1)c1ccccc1 (stereo not drawn)
Data returned: > 150 µM

Data request: What value of MIC has been reported for the following compound? `c1ccc(CNCCN2CC3CCC(C2)O3)cc1`
Data returned: > 150 µM

Data request: What value of MIC has been reported for the following compound? `c1ccc(CNCCN2CCCc3ccccc32)cc1`
Data returned: > 150 µM

Data request: What value of MIC has been reported for the following compound? CC(CC1CCCCC1)NCc1ccccc1CS(=O)(=O)NCC(=O)O (stereo not drawn)
Data returned: > 150 µM

Data request: What value of MIC has been reported for the following compound? O=C(O)C1CCCCC1CCNCc1ccccc1 (stereo not drawn)
Data returned: > 300 µM
